# System: Mus musculus
# METHOD SUMMARY: Phototoxicity in Swiss albino mouse assessed as erythema at 140 mg/kg, po after 4 hrs of 18 J/cm'2 UV light irradiation
# Format: organism-based
# Parameters: dose 140 mg/kg, route oral
# CONDITIONS USED: in vivo
MEASUREMENT KIND: Activity

O=C(O)c1cn(C2CC2)c2cc(N3CCC(N4CCCCC4)CC3)c([N+](=O)[O-])cc2c1=O    Non-toxic
CN1CCN(c2cc3c(cc2[N+](=O)[O-])c(=O)c(C(=O)O)cn3C2CC2)CC1c1ccccc1 (centres undefined)    Non-toxic
O=C(O)c1cn(C2CC2)c2cc(N3CCN(Cc4ccc5c(c4)OCO5)CC3)c([N+](=O)[O-])cc2c1=O    Non-toxic
CCn1cc(C(=O)O)c(=O)c2cc(F)c(N3CCNC(C)C3)c(F)c21 (centres undefined)    Toxic
